Readings of Ranking, FACS data for the listed binders
Target: Programmed Death 1 (PD-1) (UniProt Q15116 25-288, limits assumed)
Sequence (Q15116 25-288 limits assumed): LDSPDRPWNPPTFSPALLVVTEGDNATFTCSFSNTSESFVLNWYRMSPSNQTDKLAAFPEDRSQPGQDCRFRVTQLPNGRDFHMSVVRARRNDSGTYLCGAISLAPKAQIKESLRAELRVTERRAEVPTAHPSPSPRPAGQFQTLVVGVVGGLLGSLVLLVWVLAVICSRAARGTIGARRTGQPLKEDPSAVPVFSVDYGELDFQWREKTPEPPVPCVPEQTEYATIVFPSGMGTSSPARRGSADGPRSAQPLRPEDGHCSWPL
Assay: rank of the clone among the 16 humanized clones by FACS binding data; higher number = worse
Write the value as a bare number.

stdin: State its Ranking, FACS data for this binder: BAP049-hum05 (antibody, human IgG4 S228P, kappa, V domains shown, also called humanized BAP049 clone hum05) VH: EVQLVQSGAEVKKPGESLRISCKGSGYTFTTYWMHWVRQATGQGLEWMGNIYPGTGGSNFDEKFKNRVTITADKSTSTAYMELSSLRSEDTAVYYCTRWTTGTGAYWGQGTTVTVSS VL: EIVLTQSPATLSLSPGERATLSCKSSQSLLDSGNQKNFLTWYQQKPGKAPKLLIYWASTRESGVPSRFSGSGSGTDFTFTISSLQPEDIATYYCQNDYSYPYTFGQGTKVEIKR
stdout: 5

Please turn your attention to the following entry.
stdin: Give recorded Ranking, FACS data. BAP049-hum02 (antibody, human IgG4 S228P, kappa, V domains shown, also called Clone No. 2) VH: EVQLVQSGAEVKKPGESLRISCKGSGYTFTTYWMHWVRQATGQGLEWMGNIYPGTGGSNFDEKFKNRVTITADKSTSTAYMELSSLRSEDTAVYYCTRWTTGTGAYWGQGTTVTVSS VL: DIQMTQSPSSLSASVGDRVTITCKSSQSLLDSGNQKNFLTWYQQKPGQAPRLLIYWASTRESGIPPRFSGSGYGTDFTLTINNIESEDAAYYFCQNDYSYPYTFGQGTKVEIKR
stdout: 6

The measured values listed here are drawn from patent US20210121563A1.
